The values you see were collected from patent US20250026778A1.

# Target Of Assay: his-galectin-3 (Homo sapiens)
# Construct: purchased Abcam
# Sequence (P17931 whole entry): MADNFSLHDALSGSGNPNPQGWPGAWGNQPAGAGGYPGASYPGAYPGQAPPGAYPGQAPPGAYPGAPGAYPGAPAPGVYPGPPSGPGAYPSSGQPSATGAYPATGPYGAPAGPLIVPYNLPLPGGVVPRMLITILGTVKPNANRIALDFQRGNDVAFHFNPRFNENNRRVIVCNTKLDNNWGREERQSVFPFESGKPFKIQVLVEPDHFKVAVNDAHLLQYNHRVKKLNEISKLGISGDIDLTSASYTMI
# Experimental Protocol: TR-FRET assay (in vitro galectin-3 binding inhibitory activity test)
# Condition Context: Table 1; compound at 20 μM; 60 nM his-galectin-3, 15 nM biotin-ASF; read-out: % Inhibitory activity (at 20 μM)
Documented inhibition at 20 µM across a set of compounds

// field: inhibition at 20 µM; key: O=S1(=O)CCC(CO[C@@H]2[C@@H](n3cc(-c4cc(F)c(F)c(F)c4)nn3)[C@@H](O)[C@@H](CO)O[C@@]23CCCO3)CC1 ; value = 25 to 50%

// field: inhibition at 20 µM; key: O=C(O[C@@H]1[C@@H](n2cc(-c3cc(F)c(F)c(F)c3)nn2)[C@@H](O)[C@@H](CO)O[C@@]12CCCO2)c1ccncc1 ; value = 25 to 50%

// field: inhibition at 20 µM; key: COc1ccc2c(c1)CCC1(O2)O[C@H](CO)[C@H](O)[C@H](n2cc(-c3cc(F)c(F)c(F)c3)nn2)[C@H]1O (single isomer, unassigned) ; value = 25 to 50%

// field: inhibition at 20 µM; key: OC[C@H]1O[C@]2(OCC[C@H]2NCc2ccc(Cl)cc2)[C@H](O)[C@@H](n2cc(-c3cc(F)c(F)c(F)c3)nn2)[C@H]1O ; value = < 25%

// field: inhibition at 20 µM; key: OC[C@H]1O[C@@]2(CCCCO2)[C@H](OCc2ccccc2O)[C@@H](n2cc(-c3cc(F)c(F)c(F)c3)nn2)[C@H]1O ; value = 25 to 50%

// field: inhibition at 20 µM; key: COc1cccc(CN[C@@H]2CCO[C@]23O[C@H](CO)[C@H](O)[C@H](n2cc(-c4cc(F)c(F)c(F)c4)nn2)[C@H]3O)c1O ; value = 25 to 50%
